# System: velvetleaf (Abutilon theophrasti)
# Protocol Description: Test G Post-Emergence Protocol
# Assay type: in vivo
# Details: Abutilon theophrasti, post-emergence, 312 h, 250 g ai/ha, evaluated after 13 days, read-out: damage to plant, Velvetleaf (100=total damage to plant; 0=no damage to plant)
pest or weed control at 250 g/ha for assorted molecules
Write it as a number; the unit % goes unstated.

Solved entries:
Value lookup for pest or weed control at 250 g/ha; key = Cc1n[nH]cc1NC(=O)[C@@H]1C(=O)N(C)C[C@H]1c1ccc(C(F)(F)F)cc1 (racemic)
0

Value lookup for pest or weed control at 250 g/ha; key = CSc1nc(NC(=O)[C@@H]2C(=O)N(C)C[C@H]2c2ccc(C(F)(F)F)cc2)n[nH]1 (racemic)
0

***
Value lookup for pest or weed control at 250 g/ha; key = CN1C[C@@H](c2ccc(C(F)(F)F)cc2)[C@H](C(=O)Nc2ncnn2C)C1=O (racemic)
0

Value lookup for pest or weed control at 250 g/ha; key = CN1C[C@@H](c2ccc(C(F)(F)F)cc2)[C@H](C(=O)Nc2cccc(F)c2)C1=O (racemic)
20

* * *

# System: pigweed (Amaranthus retroflexus)
# Protocol Description: Test A postemergence
# Type: in vivo
# Details: 125 g ai/ha, postemergence; visual injury rating on 0 to 100 scale (0 no effect, 100 complete control), approx. 10 d
Measured Quantity: Pigweed plant response rating
Give a plain numeric answer without units written out.

Solved entries:
Value lookup for Pigweed plant response rating; key = CS(=O)(=O)c1ccccc1NC(=O)C1C(=O)NCC1c1ccc(C2CC2)cc1 (racemic)
0

Value lookup for Pigweed plant response rating; key = Cc1c(F)ccc(NC(=O)C2C(=O)NCC2c2cccc(C(F)(F)F)c2)c1F (stereo not shown)
0

Value lookup for Pigweed plant response rating; key = O=C1NCC(c2cc(F)cc(C(F)(F)F)c2)C1C(=O)Nc1ccccc1F (stereo not shown)
0

# ---- query compound ----
Value lookup for Pigweed plant response rating; key = O=C1NCC(c2ccc(C(F)(F)F)c(F)c2)C1C(=O)Nc1cccc(F)c1F (racemic)
60

* * *

pest or weed control at 250 g/ha for assorted compounds
# Tested on: giant foxtail (Setaria faberi)
# Protocol Description: Test G Post-Emergence Protocol
# Format: in vivo
# Details: Setaria faberi, post-emergence, 312 h, 250 g ai/ha, evaluated after 13 days, read-out: damage to plant, Foxtail, Giant (100=total damage to plant; 0=no damage to plant)
Write it as a number; the unit % goes unstated.

Value lookup for pest or weed control at 250 g/ha; key = CCc1nccc(NC(=O)[C@@H]2C(=O)N(C)C[C@H]2c2ccc(C(F)(F)F)cc2)c1Cl (racemic)
50

Value lookup for pest or weed control at 250 g/ha; key = CN1C[C@@H](c2ccc(C(F)(F)F)cc2)[C@H](C(=O)Nc2nccc(=O)[nH]2)C1=O (racemic)
0

Value lookup for pest or weed control at 250 g/ha; key = COc1cc([C@@H]2CN(C)C(=O)[C@H]2C(=O)Nc2cccc(F)c2F)ccc1Cl (racemic)
70

Value lookup for pest or weed control at 250 g/ha; key = CN1C[C@H](c2ccc(C(F)(F)F)cc2)[C@@H](C(=O)NC2=NOC(C)(C)C2)C1=O (racemic)
0

Value lookup for pest or weed control at 250 g/ha; key = CN1C[C@@H](c2ccc(C(F)(F)F)cc2)[C@H](C(=O)Nc2ccc(Cl)nc2)C1=O (racemic)
10

Value lookup for pest or weed control at 250 g/ha; key = CN1C[C@@H](c2ccc(C(F)(F)F)cc2)[C@H](C(=O)Nc2ccc(C#N)cc2Cl)C1=O (racemic)
0

# ---- query compound ----
Value lookup for pest or weed control at 250 g/ha; key = COc1cncc(NC(=O)[C@@H]2C(=O)N(C)C[C@H]2c2ccc(C(F)(F)F)cc2)n1 (racemic)
50

* * *

# Test system: giant foxtail (Setaria faberii)
# Protocol Description: Test A postemergence
# Assay type: in vivo
# Details: 125 g ai/ha, postemergence; visual injury rating on 0 to 100 scale (0 no effect, 100 complete control), approx. 10 d
Measured Quantity: Foxtail, Giant plant response rating
Give a plain numeric answer without units written out.

Value lookup for Foxtail, Giant plant response rating; key = O=C1NCC(c2cccc(F)c2F)C1C(=O)Nc1ccc(F)cc1F (stereo not shown)
20

Value lookup for Foxtail, Giant plant response rating; key = CCc1ccc(C2CNC(=O)C2C(=O)Nc2ccccc2S(C)(=O)=O)cc1 (stereo not shown)
0

Value lookup for Foxtail, Giant plant response rating; key = O=C1NCC(c2cccc(F)c2F)C1C(=O)Nc1cccc(F)c1F (stereo not shown)
80

Value lookup for Foxtail, Giant plant response rating; key = O=C1NCC(c2c(F)cccc2F)C1C(=O)Nc1ccccc1F (racemic)
0

Value lookup for Foxtail, Giant plant response rating; key = O=C1NCC(c2cc(F)cc(C(F)(F)F)c2)C1C(=O)Nc1ccccc1F (stereo not shown)
90

***
Value lookup for Foxtail, Giant plant response rating; key = CC(=O)c1ccccc1NC(=O)C1C(=O)NCC1c1ccc(F)c(F)c1 (stereo not shown)
0

Value lookup for Foxtail, Giant plant response rating; key = CN1CC(c2cccc(OC(F)(F)C(F)F)c2)C(C(=O)Nc2cccc(F)c2F)C1=O (stereo not shown)
90

Value lookup for Foxtail, Giant plant response rating; key = CN1CC(c2ccc(F)cc2)C(C(=O)Nc2cccc(F)c2F)C1=O (stereo not shown)
90

* * *

# System: corn (Zea mays)
# Protocol Description: Test A postemergence
# Type: in vivo
# Details: 500 g ai/ha, postemergence; visual injury, 0 to 100 scale (0 no effect, 100 complete control), approx. 10 d
Measured Quantity: Plant response rating, Corn
Give a plain numeric answer without units written out.

Value lookup for Plant response rating, Corn; key = O=C1NCC(c2cccc(C(F)(F)F)c2)C1C(=O)Nc1ccc(Cl)cc1F (racemic)
0

Value lookup for Plant response rating, Corn; key = CC(C)Oc1cccc(C2CN(C)C(=O)C2C(=O)Nc2ccccc2S(C)(=O)=O)c1 (stereo not drawn)
30

Value lookup for Plant response rating, Corn; key = CN1CC(c2ccc(F)c(F)c2)C(C(=O)Nc2ccccc2S(C)(=O)=O)C1=O (stereo not drawn)
0

Value lookup for Plant response rating, Corn; key = Cc1ccc([C@H]2CN(C)C(=O)[C@@H]2C(=O)Nc2ccccc2[S+](C)[O-])cc1Cl (stereo partly drawn)
90

Value lookup for Plant response rating, Corn; key = CCC1(C(=O)Nc2cccc(F)c2F)C(=O)N(C)CC1c1cccc(C(F)(F)F)c1 (stereo not drawn)
0

***
Value lookup for Plant response rating, Corn; key = Cc1ccc(C2CNC(=O)C2C(=O)Nc2ccccc2F)cc1C(F)(F)F (racemic)
70

Value lookup for Plant response rating, Corn; key = Cc1ccc(C2CN(C)C(=O)C2C(=O)Nc2ccc(F)cc2F)cc1 (stereo not drawn)
90

Value lookup for Plant response rating, Corn; key = O=C1NCC(c2cccc3ccccc23)C1C(=O)Nc1cccc(F)c1F (racemic)
0

Value lookup for Plant response rating, Corn; key = O=C1NCC(c2cccc(OC(F)(F)C(F)F)c2)C1C(=O)Nc1ccc(F)cc1F (racemic)
70

Value lookup for Plant response rating, Corn; key = O=C1NCC(c2ccc(I)cc2)C1C(=O)Nc1cccc(F)c1 (racemic)
0

Value lookup for Plant response rating, Corn; key = Cc1ccc(C2CN(C)C(=O)C2C(=O)Nc2ccccc2F)cc1 (stereo not drawn)
90

Value lookup for Plant response rating, Corn; key = Cc1ccc(C2CNC(=O)C2C(=O)Nc2ccc(F)cc2F)cc1C(F)(F)F (racemic)
20

* * *

# Tested on: barnyardgrass (Echinochloa crus-galli)
# Protocol Description: Test A postemergence
# Assay type: in vivo
# Details: 500 g ai/ha, postemergence; 0 to 100 scale, 0 no effect, 100 complete control
Plant response rating, Barnyardgrass for assorted compounds
Give a plain numeric answer without units written out.

Solved entries:
Value lookup for Plant response rating, Barnyardgrass; key = COc1ccc(NC(=O)C2C(=O)NCC2c2cccc(OC(F)F)c2)c(F)c1 (stereo not shown) [Compound 425]
30

Value lookup for Plant response rating, Barnyardgrass; key = CN1CC(c2ccc(F)cc2)C(C(=O)Nc2cccc(F)c2F)C1=O (stereo not shown) [Compound 438]
90

Value lookup for Plant response rating, Barnyardgrass; key = CCc1ccc(C2CNC(=O)C2C(=O)Nc2ccccc2F)cc1 (stereo not shown) [Compound 466]
90

Value lookup for Plant response rating, Barnyardgrass; key = Cc1cccc(NC(=O)C2C(=O)NCC2c2cccc(OC(F)F)c2)c1F (stereo not shown) [Compound 420]
90

Value lookup for Plant response rating, Barnyardgrass; key = CCc1ccc(C2CNC(=O)C2C(=O)Nc2ccccc2S(C)(=O)=O)cc1 (stereo not shown) [Compound 468]
30

***
Value lookup for Plant response rating, Barnyardgrass; key = COc1ccc(NC(=O)C2C(=O)NCC2c2ccc(F)c(F)c2)c(F)c1 (stereo not shown) [Compound 413]
0

Value lookup for Plant response rating, Barnyardgrass; key = Cc1ccc(C2CNC(=O)C2C(=O)Nc2ccc(F)cc2F)cc1F (racemic) [Compound 370]
90

All values here come from patent US12077503B2.
